- target-or-test-system: 229E Mpro (Human coronavirus 229E, UniProt P0C6X1)
- Sequence (P0C6X1 2966-3267): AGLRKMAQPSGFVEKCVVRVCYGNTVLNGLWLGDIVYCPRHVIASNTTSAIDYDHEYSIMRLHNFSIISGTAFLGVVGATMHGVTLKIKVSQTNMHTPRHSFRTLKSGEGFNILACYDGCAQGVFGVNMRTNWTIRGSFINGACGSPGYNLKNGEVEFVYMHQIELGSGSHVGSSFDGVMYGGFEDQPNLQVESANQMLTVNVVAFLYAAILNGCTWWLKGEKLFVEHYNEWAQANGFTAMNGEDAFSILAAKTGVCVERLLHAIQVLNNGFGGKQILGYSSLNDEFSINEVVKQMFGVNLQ
- protocol-text: 229E Mpro enzymatic assay (standard methods, SARS-CoV2 Mpro assay given as exemplary)
- Type: biochemical, human coronavirus (HCov) 229E
- condition-summary: 229E Mpro EC50
pEC50: −log10 of the molar value.
reported-property: pEC50

Consider the worked cases shown below.
1) C[C@H](NC(=O)C(c1cnccn1)N(C(=O)c1ccco1)c1ccc(-c2ccccc2)cc1)c1ccccc1 (single isomer, unassigned) [1355 Isomer 1] | 5.00 to 5.70
2) COCCCNC(=O)C(c1cccnc1)N(C(=O)[C@H]1C[C@@H](O)CN1C#N)c1ccc(C(C)(C)C)cc1 (single isomer, unassigned) [647 Isomer 1] | > 5.70
3) CC(C)(C)c1ccc(N(C(=O)[C@H]2CCCN2C#N)C(C(=O)N2CCOCC2)c2cccnc2)cc1 (single isomer, unassigned) [Compound 959 Isomer 1] | 5.00 to 5.70
4) [2H]C(C(=O)NC1CCOCC1)(c1cnccn1)N(C(=O)[C@H]1C[C@@](C)(O)CN1C#N)c1ccc(S(F)(F)(F)(F)F)cc1 (stereo partly shown) [Compound 1305] | < 4.52
5) CC(C)(C)OC(=O)N1CC(C)(C(=O)N(c2ccc(C(C)(C)C)cc2)C(C(=O)NC2CCCCC2)c2cccnc2)C1 (stereo not shown) [Compound 129] | < 4.52

Return value of pEC50 for input CO[C@@H]1C[C@H](C(=O)N(c2ccc(S(F)(F)(F)(F)F)cc2)C(C(=O)N2CCN(C(=O)OC(C)(C)C)CC2)c2cccnc2)N(C#N)C1 (stereo partly shown) [Compound 1149b] , no commentary.
> 5.70

Please supply the value of reported pEC50 for the item CO[C@@H]1C[C@H](C(=O)N(c2ccc(C(C)(C)C)cc2)C(C(=O)NC2CCCCC2)c2cccnc2)N(C#N)C1 (single isomer, unassigned) [Compound 292 Isomer 1]
> 5.70

Specify reported pEC50 for the compound shown: N#CN1C[C@H](O)C[C@@H]1C(=O)N(c1ccc(C2(C(F)(F)F)CC2)cc1)C(C(=O)NC1CCC(F)(F)CC1)c1cncc(F)c1 (single isomer, unassigned) [Compound 815a Isomer 1]
> 5.70

Annotate the compound C[C@H](NC(=O)C(c1cncc(F)c1)N(C(=O)[C@H]1C[C@@](C)(O)CN1C#N)c1ccc(S(F)(F)(F)(F)F)cc1)c1ccccc1 (single isomer, unassigned) [1328 Isomer 1] with its measured pEC50.
> 5.70

Indicate the recorded pEC50 value for this compound: CC(C)(C)c1ccc(N(C(=O)[C@H]2C[C@@H](Oc3ccccc3)CN2C#N)C(C(=O)NC2CCCCC2)c2cccnc2)cc1 (single isomer, unassigned) [307 Isomer 1]
> 5.70

Give the measured pEC50 for CC(C)(C)c1ccc(N(C(=O)[C@H]2C[C@@](C)(O)CN2C#N)C(C(=O)NC2CCOCC2)c2cccnc2)cc1 (single isomer, unassigned) [1142 Isomer 1]
> 5.70

Respond only with pEC50 recorded for CO[C@@H]1C[C@H](C(=O)N(c2ccc(C(C)(C)C)cc2)C(C)(C(=O)NC2CCC(F)(F)CC2)c2cnccn2)N(C#N)C1 (single isomer, unassigned) [1198 Isomer 1]
5.00 to 5.70

Please report the measured pEC50 for CO[C@@H]1C[C@H](C(=O)N(c2ccc(S(F)(F)(F)(F)F)cc2)C(C(=O)NC(C)C2CCCCN2C(=O)OC(C)(C)C)c2cccnc2)N(C#N)C1 (single isomer, unassigned) [1303 Isomer 2.1]
5.00 to 5.70

Dear colleague, please send me the reported pEC50 for CC(C)(C)c1ccc(N(C(=O)[C@H]2C[C@@](C)(O)CN2C#N)C(C(=O)NC2CCC(F)(F)CC2)c2cnccn2)cc1 (stereo partly shown) [Compound 1326] when you can.
> 5.70

Give pEC50 for the following compound: CC1(C)CN(C#N)[C@@H](C(=O)N(c2ccc(C(C)(C)C)cc2)C(C(=O)NC2CCOCC2)c2cccnc2)CO1 (single isomer, unassigned) [1141 Isomer 2]
> 5.70

# return recorded pEC50 for input N#CN1C[C@H]2C[C@H]2[C@@H]1C(=O)N(c1ccc(S(F)(F)(F)(F)F)cc1)C(C(=O)NC1CCC(F)(F)CC1)c1cnccc1C(F)(F)F (single isomer, unassigned) [Compound 1318 Isomer 1]
> 5.70

Recall and state the measured pEC50 for CN1CC(C(=O)N(c2ccc(S(F)(F)(F)(F)F)cc2)C(C(=O)NC2CCC(F)(F)CC2)c2cncc(F)c2)N(C#N)CC1=O (single isomer, unassigned) [Compound 1161 Isomer 2] .
5.00 to 5.70

Name the recorded pEC50 of the item CO[C@@H]1C[C@H](C(=O)N(c2ccc(S(F)(F)(F)(F)F)cc2)C(C(=O)NC2CCC(F)(F)CC2)c2cnccc2C(F)(F)F)N(C#N)C1 (single isomer, unassigned) [1202 Isomer 1] in your answer.
> 5.70

Provide one value: measured pEC50 of N#CN1CCC(F)(F)C1C(=O)N(c1ccc(S(F)(F)(F)(F)F)cc1)C(C(=O)NC1CCOCC1)c1cncc(F)c1 (stereo not shown) [Compound 1274]
> 5.70

----------
- target-or-test-system: COVID-19 (nCoV-2019, SARS-CoV2) Mpro (Severe acute respiratory syndrome coronavirus 2)
- protocol-text: COVID-19 (nCoV-2019, SARS-CoV2) Mpro enzymatic assay
- Type: biochemical
- condition-summary: 25 nM Mpro, 25 μM substrate; read-out: COVID-19 Mpro IC50
reported-property: IC50

Sample records with IC50:
1. CO[C@@H]1C[C@H](C(=O)N(c2ccc(S(F)(F)(F)(F)F)cc2)C(C(=O)N2CCN(C(=O)OC(C)(C)C)C2)c2cccnc2)N(C#N)C1 (single isomer, unassigned) [1148d Isomer 1] | 2 to 10 µM
2. CO[C@@H]1C[C@H](C(=O)N(c2ccc(S(F)(F)(F)(F)F)cc2)C(C(=O)NCC2(C)CCCN(C(=O)OC(C)(C)C)C2)c2cccnc2)N(C#N)C1 (single isomer, unassigned) [1290 Isomer 2] | 10 to 30 µM
3. CO[C@@H]1C[C@H](C(=O)N(c2ccc(C(C)(C)C)cc2)C(C)(C(=O)NC2CCC(F)(F)CC2)c2cccnc2)N(C#N)C1 (single isomer, unassigned) [1232 Isomer 2] | < 2 µM
4. CC(C(=O)NC1CCC(F)(F)CC1)(c1cccnc1)N(C(=O)[C@H]1C[C@@](C)(O)CN1C#N)c1ccc(S(F)(F)(F)(F)F)cc1 (single isomer, unassigned) [Compound 1077 Isomer 2] | < 2 µM
5. C[C@H]1CC[C@H](C(=O)N(c2ccc(C(C)(C)C)cc2)C(C(=O)NC2CCCCC2)c2cccnc2)N1C#N (single isomer, unassigned) [Compound 247 Isomer 1] | 2 to 10 µM
6. CC(C)(C)c1ccc(N(C(=O)[C@H]2CCCN2C#N)C(C(=O)NCC2COC2)c2cccnc2)cc1 (single isomer, unassigned) [Compound 419 Isomer 1] | < 2 µM

Give me measured IC50, please, for this compound: Cc1nc[nH]c1C(C(=O)NC1CCC(F)(F)CC1)N(C(=O)[C@H]1C[C@@](C)(O)CN1C#N)c1ccc(S(F)(F)(F)(F)F)cc1 (single isomer, unassigned) [1324 Isomer 1]
> 30 µM

Could you please provide reported IC50 for CC(C)(C)c1ccc(N(C(=O)[C@H]2CCCN2C#N)C(C(=O)N2CCNC(=O)C2)c2cccnc2)cc1 (single isomer, unassigned) [Compound 961 Isomer 2] ? Thanks!
> 30 µM

Annotate the compound CC(C)(C)c1ccc(N(C(=O)[C@H]2CCC(C)(C)N2C#N)C(C(=O)NC2CCCCC2)c2cccnc2)cc1 (single isomer, unassigned) [Compound 262 Isomer 2] with its measured IC50.
2 to 10 µM

Given the compound [2H]C(C(=O)NC1CCOCC1)(c1cnccn1)N(C(=O)[C@H]1C[C@@](C)(O)CN1C#N)c1ccc(S(F)(F)(F)(F)F)cc1 (stereo partly shown) , write its reported IC50.
> 30 µM

----------
- target-or-test-system: 229E Mpro (Human coronavirus 229E, UniProt P0C6X1)
- protocol-text: 229E Mpro enzymatic assay (standard methods, SARS-CoV2 Mpro assay given as exemplary)
- Type: biochemical, human coronavirus (HCov) 229E
- condition-summary: read-out: 229E Mpro EC50
Each item that follows carries a reported EC50.

Some compounds with known EC50 results, for comparison:
1. C[C@H]1CN(C#N)[C@H]1C(=O)N(c1ccc(S(F)(F)(F)(F)F)cc1)C(C(=O)NC1CCC(F)(F)CC1)c1cncc(F)c1 (single isomer, unassigned) [1210 Isomer 2] | < 2000 nM
2. CC(C)(C)c1ccc(N(C(=O)[C@H]2[C@H](F)CCN2C#N)C(C(=O)NC2CCCCC2)c2cccnc2)cc1 (single isomer, unassigned) [Compound 910 Isomer 2] | < 2000 nM

// moving on: another record for EC50
Recall the reported EC50 of N#CC1(C(=O)N(c2ccc(S(F)(F)(F)(F)F)cc2)C(C(=O)NC2CCC(F)(F)CC2)c2cncc(F)c2)CC1 (single isomer, unassigned) [1289 Isomer 2] when tested on 229E Mpro (Human coronavirus 229E, UniProt P0C6X1).
> 30000 nM
